Record type: pKi measurement. Applies to: Mu-type opioid receptor (Rattus norvegicus)
On this scale, pKi is minus log10 of a concentration expressed in M (mol/L).

Worked examples follow.
CCO[C@@]12Cc3c([nH]c4ccccc34)[C@]3(C)Oc4c(O)ccc5c4C31CCN(CC1CC1)[C@@H]2C5 6.47
CO[C@@]12Cc3c([nH]c4ccccc34)[C@@H]3Oc4c(O)ccc5c4[C@@]31CCN(CC1CCCCC1)[C@@H]2C5 4.85
C=CCN1CC[C@]23c4c5ccc(O)c4O[C@H]2c2oc4ccccc4c2C[C@@]3(OCC)[C@H]1C5 7.64
C=CCN1CC[C@]23c4c5ccc(O)c4O[C@H]2c2[nH]c4ccccc4c2C[C@@]3(OCC)[C@H]1C5 5.86
C=CCN1CC[C@]23c4c5ccc(O)c4O[C@H]2c2[nH]c4ccccc4c2C[C@@]3(OC)[C@H]1C5 6.06

**Query** If you can, please state the reported pKi value of CCCO[C@@]12Cc3c(n(CCC)c4ccccc34)[C@@H]3Oc4c(O)ccc5c4[C@@]31CCN(CC1CC1)[C@@H]2C5 .
**Result** 7.83

**Query** I am curious: what pKi value has been reported for C=CCO[C@@]12Cc3c(n(CC=C)c4ccccc34)[C@@H]3Oc4c(O)ccc5c4[C@@]31CCN(CC=C)[C@@H]2C5 ?
**Result** 6.00

**Query** Which pKi value is on record for CCCO[C@@]12Cc3c([nH]c4ccccc34)[C@]3(C)Oc4c(O)ccc5c4[C@@]31CCN(CC1CC1)[C@@H]2C5 ?
**Result** 6.26

**Query** I'd like to know its pKi. The compound in question is C=CCN1CC[C@]23c4c5ccc(O)c4O[C@H]2c2c(c4ccccc4n2Cc2ccccc2Cl)C[C@@]3(OCc2ccccc2Cl)[C@H]1C5
**Result** 5.91

**Query** Report pKi for CCO[C@@]12Cc3c([nH]c4ccccc34)[C@]3(C)Oc4c(O)ccc5c4[C@@]31CCN(CC1CCC1)[C@@H]2C5 please.
**Result** 6.39

**Query** What measured pKi goes with CCCN1CC[C@]23c4c5ccc(O)c4O[C@H]2c2c(c4ccccc4n2C)C[C@@]3(OC)[C@H]1C5 ?
**Result** 6.97

---

target: Opioid receptors; mu & delta (Rattus norvegicus) (UniProt P33533+P33535); test: Selectivity ratio (Ki value towards mu receptor compared to that of delta receptor).; format: protein assay
Sequence (P33533 whole entry, looked up): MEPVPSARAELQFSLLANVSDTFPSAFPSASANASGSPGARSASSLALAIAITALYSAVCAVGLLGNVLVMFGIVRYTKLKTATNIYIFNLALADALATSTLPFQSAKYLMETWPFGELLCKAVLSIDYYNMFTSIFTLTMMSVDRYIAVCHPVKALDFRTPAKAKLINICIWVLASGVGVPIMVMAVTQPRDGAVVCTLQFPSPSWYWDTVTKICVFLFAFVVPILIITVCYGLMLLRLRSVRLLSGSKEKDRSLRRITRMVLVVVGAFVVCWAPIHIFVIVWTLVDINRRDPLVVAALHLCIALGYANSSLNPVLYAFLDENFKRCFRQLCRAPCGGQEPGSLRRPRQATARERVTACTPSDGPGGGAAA
Sequence (P33535 whole entry, looked up): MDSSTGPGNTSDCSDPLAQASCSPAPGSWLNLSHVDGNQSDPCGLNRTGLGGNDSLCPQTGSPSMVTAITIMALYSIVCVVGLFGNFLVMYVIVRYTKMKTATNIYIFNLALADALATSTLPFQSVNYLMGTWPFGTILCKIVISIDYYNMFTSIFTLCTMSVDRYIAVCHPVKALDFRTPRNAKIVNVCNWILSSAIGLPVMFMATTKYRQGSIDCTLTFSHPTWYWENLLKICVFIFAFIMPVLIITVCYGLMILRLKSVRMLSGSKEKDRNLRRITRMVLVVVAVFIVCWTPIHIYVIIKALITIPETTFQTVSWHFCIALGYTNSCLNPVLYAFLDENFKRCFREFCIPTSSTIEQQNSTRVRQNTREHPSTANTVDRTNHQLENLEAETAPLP
# y = Selectivity below 40 (exclusive); n = Selectivity at/above 40

As a guide, the following entries are already answered.
CCCO[C@@]12Cc3c(n(CCC)c4ccccc34)[C@@H]3Oc4c(O)ccc5c4[C@@]31CCN(CC1CC1)[C@@H]2C5 y
CCO[C@@]12Cc3c([nH]c4ccccc34)[C@]3(C)Oc4c(O)ccc5c4[C@@]31CCN(CC1CCC1)[C@@H]2C5 y
CO[C@@]12Cc3c([nH]c4ccccc34)[C@@H]3Oc4c(O)ccc5c4[C@@]31CCN(CC1CCCCC1)[C@@H]2C5 y
CCO[C@@]12Cc3c([nH]c4ccccc34)[C@]3(C)Oc4c(O)ccc5c4C31CCN(CC1CC1)[C@@H]2C5 n
CCCN1CC[C@]23c4c5ccc(O)c4O[C@H]2c2c(c4ccccc4n2C)C[C@@]3(OC)[C@H]1C5 y

**Query** Just wondering, is Selectivity of C=CCO[C@@]12Cc3c(n(CC=C)c4ccccc34)[C@@H]3Oc4c(O)ccc5c4[C@@]31CCN(CC=C)[C@@H]2C5 below 40?
**Result** n

**Query** Determine whether this compound shows Selectivity lower than 40 (ties excluded): CN1CC[C@]23c4c5ccc(O)c4O[C@H]2c2[nH]c4ccccc4c2C[C@@]3(O)[C@H]1C5
**Result** n

**Query** Does the reported Selectivity of the following compound sit strictly below 40? CCCO[C@@]12Cc3c([nH]c4ccccc34)[C@]3(C)Oc4c(O)ccc5c4[C@@]31CCN(C)[C@@H]2C5
**Result** y

**Query** Answer whether the compound C=CCN1CC[C@]23c4c5ccc(O)c4O[C@H]2c2c(c4ccccc4n2Cc2ccccc2Cl)C[C@@]3(OCc2ccccc2Cl)[C@H]1C5 has Selectivity strictly less than 40
**Result** y

**Query** Please determine if CCO[C@@]12Cc3c(oc4ccccc34)[C@@H]3Oc4c(O)ccc5c4[C@@]31CCN(CC1CC1)[C@@H]2C5 is below 40 in terms of Selectivity.
**Result** n

**Query** Is Selectivity of CC(C)CCO[C@@]12Cc3c([nH]c4ccccc34)[C@]3(C)Oc4c(O)ccc5c4[C@@]31CCN(C)[C@@H]2C5 strictly below 40?
**Result** y

// data source = ChEMBL document CHEMBL1135665
